From: patent US20100120715A1

# EXPERIMENTAL TARGET: Class A ESBL CTXM-15 (Escherichia coli, UniProt Q9EXV5)
# Sequence (Q9EXV5 entry or part of it): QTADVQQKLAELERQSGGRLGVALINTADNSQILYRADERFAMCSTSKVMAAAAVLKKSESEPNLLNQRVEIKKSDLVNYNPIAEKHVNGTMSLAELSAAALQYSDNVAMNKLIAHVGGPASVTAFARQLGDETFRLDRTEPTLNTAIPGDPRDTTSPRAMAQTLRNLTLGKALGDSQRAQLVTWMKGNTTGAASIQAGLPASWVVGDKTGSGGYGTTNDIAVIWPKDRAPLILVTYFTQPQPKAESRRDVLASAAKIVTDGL
# TEST: β-lactamase enzyme inhibition (nitrocefin hydrolysis), CTXM-15
# CONDITION SUMMARY: purified enzyme; nitrocefin 100 μM, PBS pH 7.0; read-out: CTXM-15 IC50 Range
REPORTED ENDPOINT: IC50

### Prompt Would you mind telling me what IC50 value was observed for "CC(=O)NCC(=O)N[C@@H](Cc1cccc(C(=O)O)c1O)B(O)O" ?
### Response 10 to 100 nM

====

# EXPERIMENTAL TARGET: Class A carbapenemase KPC-2 (Klebsiella pneumoniae, UniProt Q9F663)
# Sequence (Q9F663 25-293 limits assumed): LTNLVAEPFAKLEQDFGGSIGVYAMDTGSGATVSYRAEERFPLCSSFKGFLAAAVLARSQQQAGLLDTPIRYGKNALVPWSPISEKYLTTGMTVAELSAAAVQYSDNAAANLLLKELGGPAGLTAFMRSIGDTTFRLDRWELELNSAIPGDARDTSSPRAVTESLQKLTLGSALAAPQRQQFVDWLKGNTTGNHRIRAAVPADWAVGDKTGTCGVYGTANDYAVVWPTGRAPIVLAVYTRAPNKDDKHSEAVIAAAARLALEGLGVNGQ
# TEST: β-lactamase enzyme inhibition (nitrocefin hydrolysis), KPC-2
# CONDITION SUMMARY: purified enzyme; nitrocefin 100 μM, PBS pH 7.0; read-out: KPC-2 IC50 Range
REPORTED ENDPOINT: IC50

COMPOUND	IC50
Cn1nc(-c2ccccc2)cc1C(=O)N[C@@H](Cc1cccc(C(=O)O)c1O)B(O)O [Example 44]	10 to 100 nM
O=C(COCc1ccccc1)N[C@@H](Cc1cccc(C(=O)O)c1O)B(O)O [Example 22]	< 10 nM
O=C(Cc1cc(Br)cs1)N[C@@H](Cc1cccc(C(=O)O)c1O)B(O)O [Example 9]	10 to 100 nM
CS(=O)(=O)c1ccc(CC(=O)N[C@@H](Cc2cccc(C(=O)O)c2O)B(O)O)cc1 [Example 62]	< 10 nM

### Prompt Tell me reported IC50 for O=C(Cn1cccn1)N[C@@H](Cc1cccc(C(=O)O)c1O)B(O)O [Example 40] , tested with Class A carbapenemase KPC-2 (Klebsiella pneumoniae, UniProt Q9F663).
### Response 10 to 100 nM

### Prompt Tell me reported IC50 for CC(C)(C)CC(=O)N[C@@H](Cc1cccc(C(=O)O)c1O)B(O)O [Example 25] , tested with Class A carbapenemase KPC-2 (Klebsiella pneumoniae, UniProt Q9F663).
### Response 10 to 100 nM

### Prompt Tell me reported IC50 for O=C(N[C@@H](Cc1cccc(C(=O)O)c1O)B(O)O)c1ccccc1O [Example 35] , tested with Class A carbapenemase KPC-2 (Klebsiella pneumoniae, UniProt Q9F663).
### Response 10 to 100 nM

### Prompt Tell me reported IC50 for COc1ccc(C(=O)N[C@@H](Cc2cccc(C(=O)O)c2O)B(O)O)cc1 [Example 33] , tested with Class A carbapenemase KPC-2 (Klebsiella pneumoniae, UniProt Q9F663).
### Response < 10 nM
